biological target: MtFolB (Mycobacterium tuberculosis, UniProt P9WNC5); construct: made in house; test: Mode of inhibition and inhibition constants on MtFolB aldolase activity (Lineweaver-Burk); type: biochemical; conditions: towards substrate DHNP
Sequence (P9WNC5 whole entry): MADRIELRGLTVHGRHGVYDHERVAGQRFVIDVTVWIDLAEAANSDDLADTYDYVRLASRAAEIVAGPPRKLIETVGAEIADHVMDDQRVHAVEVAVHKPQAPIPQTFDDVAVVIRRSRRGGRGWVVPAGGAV
MEASURED ATTRIBUTE: Inhibition mode

> print(dat)
                                   compound           result
1  Nc1nc2[nH]c(SCC(=O)Nc3cccc4c3CCCC4)nc2c(=O)[nH]1 [Compound 3e]  Non-competitive
2  Nc1nc2[nH]c(SCC(=O)Nc3ccc4c(c3)CCCC4)nc2c(=O)[nH]1 [Compound 3d]      Competitive
3  Nc1nc2[nH]c(SCC(=O)Nc3ccc(N4CCOCC4)cc3)nc2c(=O)[nH]1 [Compound 3b]      Competitive
4  Nc1nc2[nH]c(SCC(=O)Nc3ccc(N4CCCCC4)cc3)nc2c(=O)[nH]1 [Compound 3a]      Competitive

Could you now look at the following compound, please?
The compound Nc1nc2[nH]c(SCC(=O)Nc3ccc(C(=O)N4CCCC4)cc3)nc2c(=O)[nH]1 [Compound 3c] showed Inhibition mode equal to Non-competitive

Ref: paper PMC11328599
